B1: RHOBTB2 (parent)
chain: HHHHGRDFLLRAASFDVCESVDEA

Variants of: B1
ASSAY_REMARKS: protein stability index of a GFP-peptide fusion (GPS, HEK-293T) (PSI 1-6); higher = more stable;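 note: lentivirally expressed fusions sorted by FACS into six bins by GFP to DsRed ratio, PSI derived from sequencing read proportions per bin multiplied by bin number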
MEASUREMENT_PARAMETERS: c terminus: a fixed tail appended
QUANTITY_NAME: protein stability index
// return just the number, without any unit appended

-- ask Item under review: F8C . Reported protein stability index?
-- reply 4.74

-- ask Item under review: L9H . Reported protein stability index?
-- reply 5.1

-- ask Item under review: A13G . Reported protein stability index?
-- reply 4.33

-- ask Item under review: G5K . Reported protein stability index?
-- reply 4.2

-- ask Item under review: R11Y . Reported protein stability index?
-- reply 2.39

-- ask Item under review: H4S . Reported protein stability index?
-- reply 4.15

-- ask Item under review: A13P . Reported protein stability index?
-- reply 4.66

-- ask Item under review: H3N . Reported protein stability index?
-- reply 4.44

-- ask Item under review: L9N . Reported protein stability index?
-- reply 5.06

-- ask Item under review: H2C . Reported protein stability index?
-- reply 3.43

-- ask Item under review: A12Q . Reported protein stability index?
-- reply 3.73

-- ask Item under review: L10D . Reported protein stability index?
-- reply 5.17

-- ask Item under review: R6D . Reported protein stability index?
-- reply 4.61

-- ask Item under review: L9Q . Reported protein stability index?
-- reply 5.09

-- ask Item under review: F8E . Reported protein stability index?
-- reply 4.89

-- ask Item under review: H3D . Reported protein stability index?
-- reply 4.67

-- ask Item under review: H2T . Reported protein stability index?
-- reply 1.8

-- ask Item under review: L9Y . Reported protein stability index?
-- reply 3.54

-- ask Item under review: H4N . Reported protein stability index?
-- reply 4.15

-- ask Item under review: R11T . Reported protein stability index?
-- reply 3.72

-- ask Item under review: H1D . Reported protein stability index?
-- reply 4.88

-- ask Item under review: H1T . Reported protein stability index?
-- reply 4.59

-- ask Item under review: R11C . Reported protein stability index?
-- reply 2.63

-- ask Item under review: H4F . Reported protein stability index?
-- reply 3.38

-- ask Item under review: R6M . Reported protein stability index?
-- reply 3.49

-- ask Item under review: G5T . Reported protein stability index?
-- reply 4.15

-- ask Item under review: H4P . Reported protein stability index?
-- reply 4.59

-- ask Item under review: G5H . Reported protein stability index?
-- reply 4.34

-- ask Item under review: H1Y . Reported protein stability index?
-- reply 3.84

-- ask Item under review: F8Q . Reported protein stability index?
-- reply 5.04

-- ask Item under review: A12P . Reported protein stability index?
-- reply 4.52

-- ask Item under review: D7H . Reported protein stability index?
-- reply 2.34

-- ask Item under review: D7S . Reported protein stability index?
-- reply 3.17

-- ask Item under review: A13R . Reported protein stability index?
-- reply 3.73

-- ask Item under review: L9A . Reported protein stability index?
-- reply 4.98

-- ask Item under review: H4G . Reported protein stability index?
-- reply 3.73

-- ask Item under review: R6Y . Reported protein stability index?
-- reply 3

-- ask Item under review: A13Y . Reported protein stability index?
-- reply 2.87

-- ask Item under review: L10S . Reported protein stability index?
-- reply 3.81

-- ask Item under review: G5F . Reported protein stability index?
-- reply 1.6

-- ask Item under review: H1W . Reported protein stability index?
-- reply 3.36

-- ask Item under review: A13N . Reported protein stability index?
-- reply 4.38

-- ask Item under review: H2R . Reported protein stability index?
-- reply 3.9

-- ask Item under review: H4I . Reported protein stability index?
-- reply 3.83

-- ask Item under review: L9F . Reported protein stability index?
-- reply 3.2

-- ask Item under review: A12M . Reported protein stability index?
-- reply 2.96
